test system: Mycobacterium tuberculosis; test: Antimycobacterial activity against Mycobacterium tuberculosis H37Ra infected in mouse assessed as reduction in relative light unit in lung at 30 to 300 mg/kg,po administrated once daily for 5 days; format: functional, organism-based; details: dose 30-300 mg/kg, time 5.0 day
Activity calls are given as the source filed them. The calls are words filed in the database; no cut-off is given here.
measured metric: Activity

COc1cccc(CSc2ccc3nc(-c4ccc(F)cc4)c(OC)n3n2)c1 inactive
COc1cccc(CSc2ccc3nc(-c4ccccc4F)c(OC)n3n2)c1 inactive
COc1c(-c2ccc(F)cc2F)nc2ccc(N(C)Cc3ccccc3)nn12 inactive
COc1c(-c2ccccc2F)nc2ccc(N(C)Cc3ccccc3)nn12 inactive

Attribution: ChEMBL document CHEMBL5625205
